Molecular target: mouse TMEM16A mutant I636A (Mus musculus, UniProt Q8BHY3, I636A)
Construct: expressed in transfected cells; host or cells: HEK293T
Assay: Inside-out patch recording of 1PBC block, mutant I636A
Assay type: cell-based
Details: 80 mV; 15 µM Ca2+
propertyName: IC50 (µM)
Give bare numbers, in µM.

Quick one: IC50 for N#Cc1c(C(F)(F)F)cc(O)n2c1nc1ccccc12 ? 3.83

====

Target: mouse TMEM16A mutant S517A (Mus musculus, UniProt Q8BHY3, S517A)
Construct: expressed in transfected cells; host or cells: HEK293T
Test: Inside-out patch recording of 1PBC block, mutant S517A
Type: cell-based
Settings: -100 mV; 2 µM Ca2+
propertyName: pIC50
One number for each entry, as −log10 of the molar value.

Bench note: what pIC50 did N#Cc1c(C(F)(F)F)cc(O)n2c1nc1ccccc12 [1PBC] show? 4.81

====

Target: mouse TMEM16A mutant R515A (Mus musculus, UniProt Q8BHY3, R515A)
Construct: expressed in transfected cells; host or cells: HEK293T
Assay: Inside-out patch recording of 1PBC block, mutant R515A
Format: cell-based
Conditions: 20 mV; 4 µM Ca2+
propertyName: IC50 (µM)
One number for each entry, in µM.

Item under review: N#Cc1c(C(F)(F)F)cc(O)n2c1nc1ccccc12 . Reported IC50? 110

====

Target: mouse TMEM16A mutant S517A (Mus musculus, UniProt Q8BHY3, S517A)
Construct: expressed in transfected cells; host or cells: HEK293T
Assay: Inside-out patch recording of 1PBC block, mutant S517A
Type: cell-based
Conditions: 60 mV; 2 µM Ca2+
propertyName: IC50 (µM)
Give bare numbers, in µM.

For N#Cc1c(C(F)(F)F)cc(O)n2c1nc1ccccc12 , what is its reported IC50? 2.51

====

Target: mouse TMEM16A mutant G558P (Mus musculus, UniProt Q8BHY3, G558P)
Construct: expressed in transfected cells; host or cells: HEK293T
Experiment: Inside-out patch recording of 1PBC block, mutant G558P
Format: cell-based
Settings: G558P; V 60 mV
propertyName: IC50 (µM)
One number for each entry, in µM.

Dear colleague, I am looking for the recorded IC50 of the following compound: N#Cc1c(C(F)(F)F)cc(O)n2c1nc1ccccc12 [1PBC] 3.4

====

Biological target: mouse TMEM16A mutant P595A (Mus musculus, UniProt Q8BHY3, P595A)
Construct: expressed in transfected cells; host or cells: HEK293T
Sequence (Q8BHY3 1-960 P595A): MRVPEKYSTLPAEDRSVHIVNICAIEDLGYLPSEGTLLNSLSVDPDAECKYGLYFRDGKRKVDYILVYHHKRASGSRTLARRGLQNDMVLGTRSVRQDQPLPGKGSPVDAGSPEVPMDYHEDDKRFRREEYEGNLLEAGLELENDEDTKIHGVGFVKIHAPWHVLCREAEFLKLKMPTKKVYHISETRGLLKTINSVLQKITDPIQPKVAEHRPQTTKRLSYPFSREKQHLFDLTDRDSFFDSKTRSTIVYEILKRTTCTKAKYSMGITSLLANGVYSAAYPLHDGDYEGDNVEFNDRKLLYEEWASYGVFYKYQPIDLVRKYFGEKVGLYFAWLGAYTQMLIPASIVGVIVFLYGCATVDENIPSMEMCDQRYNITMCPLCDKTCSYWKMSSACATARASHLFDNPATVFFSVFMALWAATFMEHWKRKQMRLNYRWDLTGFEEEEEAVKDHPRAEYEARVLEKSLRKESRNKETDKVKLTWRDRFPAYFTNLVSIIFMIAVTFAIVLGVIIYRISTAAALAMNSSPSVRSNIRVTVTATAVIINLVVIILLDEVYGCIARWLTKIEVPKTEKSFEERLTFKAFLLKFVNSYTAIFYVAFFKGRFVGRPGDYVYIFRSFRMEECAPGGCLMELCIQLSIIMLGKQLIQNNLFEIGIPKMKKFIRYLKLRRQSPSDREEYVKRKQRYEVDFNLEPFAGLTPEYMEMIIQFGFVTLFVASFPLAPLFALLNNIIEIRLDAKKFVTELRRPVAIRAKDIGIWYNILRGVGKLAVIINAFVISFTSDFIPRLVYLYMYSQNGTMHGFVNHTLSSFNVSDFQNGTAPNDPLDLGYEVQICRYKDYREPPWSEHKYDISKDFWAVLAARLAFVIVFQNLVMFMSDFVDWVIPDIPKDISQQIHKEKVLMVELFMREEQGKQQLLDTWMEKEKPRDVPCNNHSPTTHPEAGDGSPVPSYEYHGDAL
Experiment: Inside-out patch recording of 1PBC block, mutant P595A
Format: cell-based
Conditions: 120 mV; 2 µM Ca2+
propertyName: pIC50
Give bare numbers, as −log10 of the molar value.

Look up pIC50 for this compound: N#Cc1c(C(F)(F)F)cc(O)n2c1nc1ccccc12 5.79

====

Target: mouse TMEM16A mutant G510P (Mus musculus, UniProt Q8BHY3, G510P)
Construct: expressed in transfected cells; host or cells: HEK293T
Assay: Inside-out patch recording of 1PBC block, mutant G510P
Assay type: cell-based
Conditions: 40 mV; 15 µM Ca2+
Procedure: HEK293T cells (ATCC CRL-1573) were maintained in Dulbecco’s modified Eagle’s medium (DMEM; Sigma-Aldrich) supplemented with 10 U ml^−1 penicillin, 0.1 mg ml^−1 streptomycin (Sigma-Aldrich), 2 mM L-glutamine (Sigma-Aldrich), and 10% FBS (Sigma-Aldrich) in a humidified atmosphere containing 5% CO2 at 37 °C. […]
propertyName: IC50 (µM)
One number for each entry, in µM.

Which IC50 is listed for N#Cc1c(C(F)(F)F)cc(O)n2c1nc1ccccc12 ? 60.2

====

Biological target: mouse TMEM16A mutant V599A (Mus musculus, UniProt Q8BHY3, V599A)
Construct: expressed in transfected cells; host or cells: HEK293T
Experiment: Inside-out patch recording of 1PBC block, mutant V599A
Type: cell-based
Conditions: 20 mV; 15 µM Ca2+
propertyName: pIC50
Answers are plain numbers, as −log10 of the molar value.

Item under review: N#Cc1c(C(F)(F)F)cc(O)n2c1nc1ccccc12 . Reported pIC50? 4.21

====

Target: mouse TMEM16A mutant Y514A (Mus musculus, UniProt Q8BHY3, Y514A)
Construct: expressed in transfected cells; host or cells: HEK293T
Assay: Inside-out patch recording of 1PBC block, mutant Y514A
Type: cell-based
Conditions: Y514A; V 80 mV
propertyName: pIC50
One number for each entry, as −log10 of the molar value.

Reported pIC50 for N#Cc1c(C(F)(F)F)cc(O)n2c1nc1ccccc12 : what is it? 4.88

====

Target: mouse TMEM16A mutant Q637A (Mus musculus, UniProt Q8BHY3, Q637A)
Construct: expressed in transfected cells; host or cells: HEK293T
Assay: Inside-out patch recording of 1PBC block, mutant Q637A
Assay type: cell-based
Details: -40 mV; 2 µM Ca2+
Description: HEK293T cells (ATCC CRL-1573) were maintained in Dulbecco’s modified Eagle’s medium (DMEM; Sigma-Aldrich) supplemented with 10 U ml^−1 penicillin, 0.1 mg ml^−1 streptomycin (Sigma-Aldrich), 2 mM L-glutamine (Sigma-Aldrich), and 10% FBS (Sigma-Aldrich) in a humidified atmosphere containing 5% CO2 at 37 °C. […]
propertyName: pIC50
Give bare numbers, as −log10 of the molar value.

Given the entry N#Cc1c(C(F)(F)F)cc(O)n2c1nc1ccccc12 , what pIC50 was observed with mouse TMEM16A mutant Q637A (Mus musculus, UniProt Q8BHY3, Q637A)? 5.51

====

Biological target: mouse TMEM16A mutant Y598A (Mus musculus, UniProt Q8BHY3, Y598A)
Construct: expressed in transfected cells; host or cells: HEK293T
Assay: Inside-out patch recording of 1PBC block, mutant Y598A
Type: cell-based
Conditions: Y598A; V 80 mV
propertyName: IC50

IC50 for N#Cc1c(C(F)(F)F)cc(O)n2c1nc1ccccc12 [1PBC] ? 3.04 µM

====

Biological target: mouse TMEM16A mutant I512A (Mus musculus, UniProt Q8BHY3, I512A)
Construct: expressed in transfected cells; host or cells: HEK293T
Assay: Inside-out patch recording of 1PBC block, mutant I512A
Type: cell-based
Details: I512A; V 100 mV
propertyName: IC50 (µM)
Answers are plain numbers, in µM.

State the recorded IC50 for this entry: N#Cc1c(C(F)(F)F)cc(O)n2c1nc1ccccc12 [1PBC] 15.9

====

Target: mouse TMEM16A mutant T539A (Mus musculus, UniProt Q8BHY3, T539A)
Construct: expressed in transfected cells; host or cells: HEK293T
Sequence (Q8BHY3 1-960 T539A): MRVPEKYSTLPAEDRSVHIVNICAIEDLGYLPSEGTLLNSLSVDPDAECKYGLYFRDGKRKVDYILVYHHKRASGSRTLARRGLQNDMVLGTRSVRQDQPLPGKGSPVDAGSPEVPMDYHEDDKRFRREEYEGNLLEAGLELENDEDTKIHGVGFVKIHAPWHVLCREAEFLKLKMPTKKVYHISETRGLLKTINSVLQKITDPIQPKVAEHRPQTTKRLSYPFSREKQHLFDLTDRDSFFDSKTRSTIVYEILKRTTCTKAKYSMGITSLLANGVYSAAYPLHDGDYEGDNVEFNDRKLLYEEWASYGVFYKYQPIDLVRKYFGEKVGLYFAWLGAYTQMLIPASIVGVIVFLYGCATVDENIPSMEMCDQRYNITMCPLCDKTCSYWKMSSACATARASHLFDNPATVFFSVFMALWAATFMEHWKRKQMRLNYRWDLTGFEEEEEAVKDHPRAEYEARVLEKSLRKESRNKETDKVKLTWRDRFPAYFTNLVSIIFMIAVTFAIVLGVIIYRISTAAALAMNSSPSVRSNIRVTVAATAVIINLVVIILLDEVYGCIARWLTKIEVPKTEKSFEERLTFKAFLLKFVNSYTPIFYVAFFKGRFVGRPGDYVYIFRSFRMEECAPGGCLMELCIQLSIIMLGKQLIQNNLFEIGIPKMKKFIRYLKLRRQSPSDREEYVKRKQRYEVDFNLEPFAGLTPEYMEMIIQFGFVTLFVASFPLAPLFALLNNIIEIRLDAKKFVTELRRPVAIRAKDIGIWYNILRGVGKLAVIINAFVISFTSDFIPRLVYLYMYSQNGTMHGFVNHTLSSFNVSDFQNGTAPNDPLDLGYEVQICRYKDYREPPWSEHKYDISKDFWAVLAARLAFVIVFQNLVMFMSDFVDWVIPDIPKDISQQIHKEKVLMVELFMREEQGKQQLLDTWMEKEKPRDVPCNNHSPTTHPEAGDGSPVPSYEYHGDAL
Assay: Inside-out patch recording of 1PBC block, mutant T539A
Type: cell-based
Details: T539A; V 0 mV
propertyName: IC50

Need IC50 of N#Cc1c(C(F)(F)F)cc(O)n2c1nc1ccccc12 [1PBC] , thanks. 14.9 µM
